src = PubChem BioAssay (NCI)

Assay: NCI Yeast Anticancer Drug Screen. Data for the rad14 strain (AID 159)
Settings: S. cerevisiae rad14 strain growth inhibition; at 100.0 µM
Compounds without any hit were thinned out: in the full panel of roughly 79,000, 15% have a hit. Calls of active or inactive are those of the source. Cut-off read from the data, not from the text of the source: active = growth inhibition above about 70%; inactive = the rest.
Pick one: active, inactive

Assay outcome for `CC(/C=C/c1ccc(Cl)cc1)=N\NC(=S)NCC(C)C` : what was it? inactive

Assay outcome for `Fc1ccc(NC(=S)SCc2ccc3c(c2)OCO3)cc1F` : what was it? active

Assay outcome for `COC(=O)c1ccc(CCC2=CC(=O)C(Br)=CC2=O)cc1` : what was it? inactive

Assay outcome for `COc1cc2c(cc1[N+](=O)[O-])C(=O)C(Br)(Br)CCC2` : what was it? active

Assay outcome for `CCC(=O)OCCn1c2nc(=O)[nH]c(=O)c-2nc2cc(C)c(C)cc21` : what was it? inactive

Assay outcome for `CC1=NN(c2cccc(Cl)c2)C(=O)C1` : what was it? inactive

Assay outcome for `CCCCCCCCCCCC(=O)N(C)C` : what was it? active

Assay outcome for `C/C(=N\NC(=S)SCc1ccccc1)c1ccccn1` : what was it? active

Assay outcome for `S=c1[nH]nc(Nc2ccc(Cl)cc2)s1` : what was it? active

Assay outcome for O=C(Nc1ccccc1)C(=O)C(C(=O)c1ccccc1)C(c1ccccc1)c1ccccc1 (centres undefined) : what was it? inactive

Assay outcome for `Cc1nc(-c2ccccc2)c(-c2ccccc2)s1` : what was it? active

Assay outcome for `O=C1c2ccccc2-c2n[nH]c3cccc1c23` : what was it? inactive

Assay outcome for `c1ccc(-c2ccnc3c2ccc2c(-c4ccccc4)ccnc23)cc1` : what was it? active

Assay outcome for `Cc1c(C(=O)C(=O)c2ccccc2)c(C)c(C(=O)C(=O)c2ccccc2)c(C)c1C(=O)C(=O)c1ccccc1` : what was it? inactive

Assay outcome for `CC(C)OC(=O)Oc1ccccc1OC(=O)OC(C)C` : what was it? inactive

Assay outcome for `O=C(/C=C/c1cccc(Br)c1)c1cccs1` : what was it? active

Assay outcome for `O=[N+]([O-])c1ccc(=S)[nH]c1` : what was it? active

Assay outcome for `OC1CSCCCSCCSCCCSC1` : what was it? inactive

Assay outcome for `O=C(Cc1csc2[n+]1C(=O)/C(=C/c1ccc(Cl)cc1)S2)Nc1ccccc1` : what was it? inactive

Assay outcome for `O=C1C(Nc2ccccc2)=C(Oc2ccccc2)C(=O)c2ccccc21` : what was it? inactive

Assay outcome for `C[Si](C)(C)CNC(=O)OCc1ccccc1` : what was it? inactive

Assay outcome for `CC(=O)Nc1ccc2c(c1)C(=Nc1ccc(C(=O)O)cc1)c1ccccc1-2` : what was it? active

Assay outcome for `CN(N=O)N1C(=O)SCC(c2ccccc2)(c2ccccc2)C1=O` : what was it? inactive

Assay outcome for `CC1(C)[C@@H]2CC[C@]1(C)[C@H](OC(=O)CSC#N)C2` : what was it? active
